Molecular target: Ba/F3-FL-EGFR-L858R (Homo sapiens, UniProt P00533, L858R, cells depend on it)
Sequence (P00533 whole entry L858R): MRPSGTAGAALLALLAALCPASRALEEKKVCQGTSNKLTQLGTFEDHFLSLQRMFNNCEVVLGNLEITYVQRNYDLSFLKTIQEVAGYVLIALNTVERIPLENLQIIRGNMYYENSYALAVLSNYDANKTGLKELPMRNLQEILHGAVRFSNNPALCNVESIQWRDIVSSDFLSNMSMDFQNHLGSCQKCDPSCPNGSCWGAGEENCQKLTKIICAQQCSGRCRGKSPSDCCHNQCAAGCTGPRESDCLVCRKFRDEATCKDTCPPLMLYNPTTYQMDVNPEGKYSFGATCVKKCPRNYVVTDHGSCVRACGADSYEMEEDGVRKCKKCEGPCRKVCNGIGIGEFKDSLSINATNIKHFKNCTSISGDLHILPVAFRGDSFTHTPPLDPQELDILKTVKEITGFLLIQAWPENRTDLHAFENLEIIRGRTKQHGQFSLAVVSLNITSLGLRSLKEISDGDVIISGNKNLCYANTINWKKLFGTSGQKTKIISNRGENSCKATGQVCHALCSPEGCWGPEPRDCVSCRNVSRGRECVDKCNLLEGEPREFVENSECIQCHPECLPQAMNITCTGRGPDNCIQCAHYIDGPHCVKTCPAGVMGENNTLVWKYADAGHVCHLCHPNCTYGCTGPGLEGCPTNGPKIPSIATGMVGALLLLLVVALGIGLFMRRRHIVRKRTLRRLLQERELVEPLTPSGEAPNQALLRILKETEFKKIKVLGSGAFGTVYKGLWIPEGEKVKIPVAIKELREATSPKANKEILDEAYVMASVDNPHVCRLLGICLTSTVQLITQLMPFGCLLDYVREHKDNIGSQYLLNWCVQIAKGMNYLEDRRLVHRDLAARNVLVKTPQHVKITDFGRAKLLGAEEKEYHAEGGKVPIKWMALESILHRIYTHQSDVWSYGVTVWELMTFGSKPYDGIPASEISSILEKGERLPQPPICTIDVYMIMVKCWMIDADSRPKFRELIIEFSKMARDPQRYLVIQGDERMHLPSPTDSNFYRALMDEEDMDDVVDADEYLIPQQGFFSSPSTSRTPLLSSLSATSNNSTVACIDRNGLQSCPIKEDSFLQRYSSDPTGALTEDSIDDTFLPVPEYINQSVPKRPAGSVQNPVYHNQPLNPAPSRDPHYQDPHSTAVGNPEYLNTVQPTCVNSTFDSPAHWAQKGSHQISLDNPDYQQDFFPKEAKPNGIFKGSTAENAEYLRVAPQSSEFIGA
Experiment: CellTiter-Glo proliferation, Ba/F3-FL-EGFR-L858R
Format: cell-based
Settings: 72 hours, read-out: Ba/F3-FL-EGFR-L858R IC50/nM
Parameter: GI50 (nM)

P. CC(C)c1ccc(N2CC(CS(C)(=O)=O)C2)c2cnc(Nc3ccnc(-c4cnn(S(=O)(=O)CC5CC5)c4)n3)cc12
Q. COC1CCN(c2nccc(Nc3cc4c(C(C)C)ccc(N5CC(N(C)S(=O)(=O)C(F)(F)F)C5)c4cn3)n2)CC1F (stereo not shown)
Problem: Given the entries P and Q , determine which has the lower reported GI50. Identify your selection by its label.
P
(P: 71 nM, Q: 1890 nM)

A. COC1CCN(c2nccc(Nc3cc4c(C(C)C)ccc(N5C[C@H](NS(C)(=O)=O)[C@H]5C)c4cn3)n2)CC1F (stereo partly shown)
B. CC(C)c1ccc(N2CC(NS(=O)(=O)N(C)C)C2)c2cnc(Nc3ccnc(N4CCC(O)C(F)C4)n3)cc12 (stereo not shown)
Kindly identify the item with the lower GI50 figure among these two: A and B Lab note: record the label of whichever item you select.
A

* * *

Experiment: Liver microsome stability test, human
Format: in vitro ADME
Conditions: human liver microsomes 0.5 mg/ml, compound 1 μM, NADPH 1 mM, within 60 minutes
Parameter: CLint scaled at 1 μM (mL/min/kg)

Compound: COC1CCN(c2nccc(Nc3cc4c(C(C)C)ccc(N5CC(NS(C)(=O)=O)C5)c4cn3)n2)CC1F (stereo not drawn) [Compound P29]
Units text: mL/min/kg
CLint scaled at 1 μM: 23.4
--
Compound: CC(C)c1ccc(N2CC(CS(C)(=O)=O)C2)c2cnc(Nc3ccnc(-c4cnn(S(=O)(=O)N(C)C)c4)n3)cc12 [Compound H19]
Units text: mL/min/kg
CLint scaled at 1 μM: 17.2
--
Compound: CC(C)c1ccc(N2C[C@H](CS(C)(=O)=O)[C@H]2C)c2cnc(Nc3ccnc(-c4cnn(S(C)(=O)=O)c4)n3)cc12 [Compound H30]
Units text: mL/min/kg
CLint scaled at 1 μM: 11.7
--
Compound: CC(C)c1ccc(N2CC(NS(C)(=O)=O)C2)c2cnc(Nc3ccnc(N4CCC(O)C(F)C4)n3)cc12 (stereo not drawn) [Compound P21]
Units text: mL/min/kg
CLint scaled at 1 μM: 13.6

1. CC(C)c1ccc(N2C[C@H](CS(C)(=O)=O)[C@H]2C)c2cnc(Nc3ccnc(-c4cnn(S(=O)(=O)C5CC5)c4)n3)cc12 [Compound H12]
2. CC(C)c1ccc(N2CC(CS(C)(=O)=O)C2)c2cnc(Nc3ccnc(-c4cnn(S(C)(=O)=O)c4)n3)cc12 [Compound H7]
Consider entries 1 and 2 . Which has the numerically lower CLint scaled at 1 μM? Respond using the label that marks the chosen record.
1
(1: 14.2 mL/min/kg, 2: 21.3 mL/min/kg)

* * *

Biological target: Ba/F3-FL-EGFR (Homo sapiens)
Construct: FL read as full length
Assay: CellTiter-Glo proliferation, Ba/F3-FL-EGFR
Type: cell-based
Settings: 72 hours, read-out: Ba/F3-FL-EGFR IC50/nM
Parameter: GI50 (nM)

Molecule: CC(C)c1ccc(N2C[C@H](CS(C)(=O)=O)[C@H]2C)c2cnc(Nc3ccnc(-c4cnn(S(=O)(=O)N(C)C)c4)n3)cc12 [Compound H28]
Units text: nM
GI50: 595

1. CO[C@@H]1CCN(c2nccc(Nc3cc4c(C(C)C)ccc(N5C[C@H](N(C)S(C)(=O)=O)[C@H]5C)c4cn3)n2)C[C@@H]1F [Compound P40a]
2. CCOCCS(=O)(=O)n1cc(-c2nccc(Nc3cc4c(C(C)C)ccc(N5C[C@H](CS(C)(=O)=O)[C@H]5C)c4cn3)n2)cn1 [Compound H22]
3. CC(C)c1ccc(N2CC(NS(=O)(=O)N(C)C)C2)c2cnc(Nc3ccnc(N4CCC(O)C(F)C4)n3)cc12 (stereo not drawn) [Compound P27]
4. CC(C)c1ccc(N2CC3(CC(S(C)(=O)=O)C3)C2)c2cnc(Nc3ccnc(-c4cnn(S(=O)(=O)C5CC5)c4)n3)cc12 [Compound P3]
Rank by GI50 (largest to smallest). Please list the labels in the order you were asked to rank them.
3, 4, 1, 2

A. CCS(=O)(=O)NC1CN(c2ccc(C(C)C)c3cc(Nc4ccnc(N5CCC(O)C(F)C5)n4)ncc23)C1 (stereo not drawn) [Compound P47]
B. CC(C)c1ccc(N2CC(NS(C)(=O)=O)C2)c2cnc(Nc3ccnc(N4CCC(O)C(C)(F)C4)n3)cc12 (stereo not drawn) [Compound P46]
C. CC(C)c1ccc(N2CC(CS(C)(=O)=O)C2)c2cnc(Nc3ccnc(-c4cnn(S(=O)(=O)C5CCC5)c4)n3)cc12 [Compound H13]
D. CC(C)c1ccc(N2C[C@H](CS(C)(=O)=O)[C@H]2C)c2cnc(Nc3ccnc(-c4cnn(S(C)(=O)=O)c4)n3)cc12 [Compound H30]
Arrange these 4 molecules in increasing order of GI50. Put the labels in the order asked and list them.
D, C, A, B
(D: 259 nM, C: 640 nM, A: 1610 nM, B: 3110 nM)

* * *

Molecular target: Ba/F3-FL-EGFR (Homo sapiens, UniProt P00533)
Construct: FL read as full length
Sequence (P00533 whole entry, change not shown): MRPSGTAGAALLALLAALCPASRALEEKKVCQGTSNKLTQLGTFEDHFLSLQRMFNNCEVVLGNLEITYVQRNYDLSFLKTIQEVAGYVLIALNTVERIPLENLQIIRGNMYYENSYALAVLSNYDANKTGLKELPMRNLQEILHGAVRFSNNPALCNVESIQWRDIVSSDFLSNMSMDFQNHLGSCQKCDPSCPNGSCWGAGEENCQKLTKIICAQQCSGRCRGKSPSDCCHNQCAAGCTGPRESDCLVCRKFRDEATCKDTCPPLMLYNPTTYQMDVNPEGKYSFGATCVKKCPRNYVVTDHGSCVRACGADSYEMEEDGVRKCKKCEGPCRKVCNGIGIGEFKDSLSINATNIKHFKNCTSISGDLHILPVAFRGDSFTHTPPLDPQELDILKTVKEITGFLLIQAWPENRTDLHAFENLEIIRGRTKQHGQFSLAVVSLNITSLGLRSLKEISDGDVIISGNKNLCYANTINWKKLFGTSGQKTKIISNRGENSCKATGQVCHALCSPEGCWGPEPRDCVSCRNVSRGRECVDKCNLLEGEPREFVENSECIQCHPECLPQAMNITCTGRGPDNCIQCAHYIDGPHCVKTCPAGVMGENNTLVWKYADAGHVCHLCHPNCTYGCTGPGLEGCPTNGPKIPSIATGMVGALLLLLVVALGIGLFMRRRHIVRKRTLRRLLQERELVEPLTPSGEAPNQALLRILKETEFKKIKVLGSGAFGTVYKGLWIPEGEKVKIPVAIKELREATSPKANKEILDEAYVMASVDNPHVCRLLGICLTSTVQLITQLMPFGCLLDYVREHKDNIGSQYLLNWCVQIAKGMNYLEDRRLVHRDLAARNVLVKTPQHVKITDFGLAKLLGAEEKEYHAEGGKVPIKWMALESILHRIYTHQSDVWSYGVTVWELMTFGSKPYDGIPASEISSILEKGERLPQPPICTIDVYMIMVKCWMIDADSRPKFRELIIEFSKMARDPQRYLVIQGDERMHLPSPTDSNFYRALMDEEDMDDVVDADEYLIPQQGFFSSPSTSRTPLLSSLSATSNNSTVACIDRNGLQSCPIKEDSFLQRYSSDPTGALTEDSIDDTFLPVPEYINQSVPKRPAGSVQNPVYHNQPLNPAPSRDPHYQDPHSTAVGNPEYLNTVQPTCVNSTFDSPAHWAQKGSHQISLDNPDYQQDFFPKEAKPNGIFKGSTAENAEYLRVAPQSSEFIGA
Test: CellTiter-Glo proliferation, Ba/F3-FL-EGFR
Type: cell-based
Conditions: 72 hours, read-out: Ba/F3-FL-EGFR IC50/nM
Experimental: Promega CellTiter-Glo reagent was used to detect the effects of small molecule inhibitors on the proliferation of five Ba/F3 cell lines (Ba/F3-FL-EGFR, Ba/F3-FL-EGFR-L858R, Ba/F3-FL-EGFR-L858R-T790M-C797S, Ba/F3-TEL-EGFR-L858R-C797S and Ba/F3-FL-EGFR-del19-C797S). The cell lines were cultured in an incubator at 37° C. and 5% CO2. Cells were passaged regularly and cells in the logarithmic phase were used for plating. […] Cell viability was detected by CellTiter-Glo luminescence assay. […]
Parameter: GI50 (nM)

Below, each entry is followed by its recorded GI50 result.
Molecule: CC(C)c1ccc(N2CC(N(C)S(C)(=O)=O)C2)c2cnc(Nc3ccnc(-c4cnn(S(=O)(=O)C5CC5)c4)n3)cc12
Target entity: Ba/F3-FL-EGFR (Homo sapiens, UniProt P00533)
GI50 / nM: 208

Molecule: CC(C)c1ccc(N2CC(CS(C)(=O)=O)C2)c2cnc(Nc3ccnc(-c4cnn(S(=O)(=O)C5CCOC5)c4)n3)cc12 (centres unmarked)
Target entity: Ba/F3-FL-EGFR (Homo sapiens, UniProt P00533)
GI50 / nM: 458

Molecule: CC(C)c1ccc(N2C[C@H](N(C)S(C)(=O)=O)[C@H]2C)c2cnc(Nc3ccnc(N4CC[C@@H](O)[C@@H](F)C4)n3)cc12 [Compound P41a]
Target entity: Ba/F3-FL-EGFR (Homo sapiens, UniProt P00533)
GI50 / nM: 693

Molecule: COC1CCN(c2nccc(Nc3cc4c(cn3)c(N3CC(CS(C)(=O)=O)C3)cc(=O)n4C(C)C)n2)CC1F (centres unmarked)
Target entity: Ba/F3-FL-EGFR (Homo sapiens, UniProt P00533)
GI50 / nM: 3440

P. COCCS(=O)(=O)N(C)C1CN(c2ccc(C(C)C)c3cc(Nc4ccnc(N5CCC(OC)C(F)C5)n4)ncc23)C1 (centres unmarked)
Q. COC1CCN(c2nccc(Nc3cc4c(C(C)C)ccc(N5C[C@H](NS(C)(=O)=O)[C@H]5C)c4cn3)n2)CC1F (some centres unmarked)
Could you please tell me which of these two has the higher GI50: P or Q ? Your choice should be expressed through its label.
P

* * *

Target: EGFR (wild-type) (Homo sapiens)
Sequence (P00533 25-1210): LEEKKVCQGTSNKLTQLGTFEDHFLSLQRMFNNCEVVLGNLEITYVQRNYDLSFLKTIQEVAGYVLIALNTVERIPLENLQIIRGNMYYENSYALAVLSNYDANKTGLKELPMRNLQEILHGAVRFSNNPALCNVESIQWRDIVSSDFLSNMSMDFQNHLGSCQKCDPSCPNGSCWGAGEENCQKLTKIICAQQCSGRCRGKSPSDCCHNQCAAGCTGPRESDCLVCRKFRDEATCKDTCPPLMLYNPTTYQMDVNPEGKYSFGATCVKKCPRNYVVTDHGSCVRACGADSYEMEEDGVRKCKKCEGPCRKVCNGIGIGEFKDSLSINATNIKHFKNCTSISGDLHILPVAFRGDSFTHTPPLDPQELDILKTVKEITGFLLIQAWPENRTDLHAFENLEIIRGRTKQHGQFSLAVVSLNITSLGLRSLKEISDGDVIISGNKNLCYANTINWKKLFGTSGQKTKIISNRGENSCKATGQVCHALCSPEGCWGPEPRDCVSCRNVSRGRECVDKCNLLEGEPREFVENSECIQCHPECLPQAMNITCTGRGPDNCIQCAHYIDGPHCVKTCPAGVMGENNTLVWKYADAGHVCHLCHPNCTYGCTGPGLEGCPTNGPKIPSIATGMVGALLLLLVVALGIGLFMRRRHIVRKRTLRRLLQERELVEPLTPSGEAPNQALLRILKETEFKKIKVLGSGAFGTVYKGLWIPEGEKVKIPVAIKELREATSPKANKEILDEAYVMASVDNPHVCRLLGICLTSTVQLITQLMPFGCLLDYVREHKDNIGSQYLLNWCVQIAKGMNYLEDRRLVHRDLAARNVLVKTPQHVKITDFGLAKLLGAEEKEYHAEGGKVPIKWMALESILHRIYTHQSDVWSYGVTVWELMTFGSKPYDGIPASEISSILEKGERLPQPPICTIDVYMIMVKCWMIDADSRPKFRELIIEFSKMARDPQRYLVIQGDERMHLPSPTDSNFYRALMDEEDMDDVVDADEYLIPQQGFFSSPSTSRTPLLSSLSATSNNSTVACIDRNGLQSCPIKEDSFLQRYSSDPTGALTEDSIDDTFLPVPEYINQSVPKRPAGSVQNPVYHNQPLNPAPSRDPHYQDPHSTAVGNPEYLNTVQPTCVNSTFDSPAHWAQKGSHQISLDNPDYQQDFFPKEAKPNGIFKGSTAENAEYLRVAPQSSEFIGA
Assay: MSA (Mobility Shift Assay) kinase activity, EGFR wild type
Format: biochemical
Details: read-out: EGFR wt/ IC50/nM
Parameter: IC50 (nM)

Compound: CC(C)c1ccc(N2CC(CS(C)(=O)=O)C2)c2cnc(Nc3ccnc(-c4cn[nH]c4)n3)cc12 [Compound H3]
IC50, nM: 11.7

a. CC(C)n1c(=O)cc(N2CC(CS(C)(=O)=O)C2)c2cnc(Nc3ccnc(-c4cnn(S(=O)(=O)C5CC5)c4)n3)cc21 [Compound H5]
b. CC(C)n1c(=O)cc(N2CC(CS(C)(=O)=O)C2)c2cnc(Nc3ccnc(N4CCC(O)C(F)C4)n3)cc21 (stereo not shown) [Compound P14]
Compare IC50: is it lower for a or for b ? // output: label of the selected item
a

* * *

Target: Ba/F3-FL-EGFR (Homo sapiens)
Construct: FL read as full length
Experiment: CellTiter-Glo proliferation, Ba/F3-FL-EGFR
Format: cell-based
Conditions: 72 hours, read-out: Ba/F3-FL-EGFR IC50/nM
Experimental: Promega CellTiter-Glo reagent was used to detect the effects of small molecule inhibitors on the proliferation of five Ba/F3 cell lines (Ba/F3-FL-EGFR, Ba/F3-FL-EGFR-L858R, Ba/F3-FL-EGFR-L858R-T790M-C797S, Ba/F3-TEL-EGFR-L858R-C797S and Ba/F3-FL-EGFR-del19-C797S). The cell lines were cultured in an incubator at 37° C. and 5% CO2. Cells were passaged regularly and cells in the logarithmic phase were used for plating. […] Cell viability was detected by CellTiter-Glo luminescence assay. […]
Parameter: GI50 (nM)

Compound: CCCS(=O)(=O)n1cc(-c2nccc(Nc3cc4c(C(C)C)ccc(N5CC(CS(C)(=O)=O)C5)c4cn3)n2)cn1
Units text: nM
GI50: 559

A. CC(C)c1ccc(N2C[C@H](CS(C)(=O)=O)[C@H]2C)c2cnc(Nc3ccnc(-c4cnn(S(=O)(=O)CCOC5CC5)c4)n3)cc12
B. CC(C)c1ccc(N2CC(CS(C)(=O)=O)C2)c2cnc(Nc3ccnc(N4CCC(O)C(F)C4)n3)cc12 (stereo not drawn) [Control A, reference compound]
Rank A against B by their GI50 values and give the higher one. Record your answer as the label of the chosen record.
B
(B: 2020 nM, A: 503 nM)
